- Tested on: Runx2
- RUN DESCRIPTION: Runx2 activity, 6xOSE2-Luc luciferase reporter in transfected C2C12 cells
- Assay type: cell-based, Mouse
- CONDITIONS: Mus musculus, 20 μM, 24 hrs, read-out: luciferase activity relative to control set as 1
ENDPOINT LABEL: fold induction at 20 µM
Numbers only.

Below, 3 compounds whose answers are already recorded.
STRUCTURE STRING: N#Cc1ccc(-c2cccc3c2CN(Cc2ccc(C(=O)Nc4ccccc4N)cc2)C3=O)cc1
fold induction at 20 µM: 16.8

STRUCTURE STRING: Nc1ccccc1NC(=O)CCCCCN1Cc2c(cccc2-c2cccnc2)C1=O
fold induction at 20 µM: 43.3

STRUCTURE STRING: COc1ccc(-c2cccc3c2CN(Cc2ccc(C(=O)Nc4ccccc4N)cc2)C3=O)cc1
fold induction at 20 µM: 14

Please find the next compound below.
## Input For the compound shown here, Cc1cc(C(=O)NCCCCCC(=O)Nc2ccccc2N)ccc1-c1cccnc1 , give the reported fold induction at 20 µM.
## Output 41.2
